Quick record: Ki, FXIIa (Homo sapiens, UniProt P00748).

Field: example entries. Status: answers known.
Cn1ncc2cc(CNC(=O)[C@@H]3C[C@@H](Cc4ccc(Cl)cc4)CN3C(=O)[C@@H]3NCCC[C@@H]3C(=O)N3CCCC3)ccc21 [Example M05854] | 200 to 800 nM
Cc1ccc(C[C@@H]2C[C@@H](C(=O)NCc3ccc4c(cnn4C(F)F)c3)N(C(=O)[C@@H]3NCCC[C@@H]3C(=O)N3CCCC3)C2)cc1 [Example M05778] | 200 to 800 nM
Cc1ccc(O[C@@H]2C[C@@H](C(=O)NCc3ccc4c(cnn4C)c3)N(C(=O)[C@@H]3NCCC[C@@H]3C(=O)N3CCCC3)C2)cc1 [Example M05798] | 800 to 5000 nM
Cc1ccc(C[C@@H]2C[C@@H](C(=O)NCc3cnc4[nH]cc(Cl)c4c3)N(C(=O)[C@@H]3NCCC[C@@H]3C(=O)N3CCCC3)C2)cc1 [Example M05899] | < 200 nM
Cc1ccc(C[C@@H]2C[C@@H](C(=O)NCc3ccc4c(cnn4C)c3)N(C(=O)[C@@H]3NCCC[C@@H]3C(=O)N3CCCN(C)CC3)C2)cc1 [Example M05840] | < 200 nM

What the record says about COc1ccc(C[C@@H]2C[C@@H](C(=O)NCc3ccc4c(cnn4C)c3)N(C(=O)[C@@H]3NCCC[C@@H]3C(=O)N3CCCC3)C2)cn1 [Example M05875] : Ki is 200 to 800 nM

Ki in this record for Cc1ccc(C[C@@H]2C[C@@H](C(=O)NCc3ccc4[nH]ncc4c3)N(C(=O)[C@@H]3NCCC[C@@H]3C(=O)N3CCCC3)C2)cc1 [Example M05748] : 800 to 5000 nM

Consider CO[C@H]1CCN(CCN(C)C(=O)[C@H]2CCCN[C@H]2C(=O)N2C[C@H](Cc3ccc(C)cc3)C[C@H]2C(=O)NCc2ccc3c(cnn3C)c2)C1 [Example M06128] . Its measured Ki is < 200 nM

Sample Cc1ccc(C=C2C[C@@H](C(=O)NCc3ccc4c(cnn4C)c3)N(C(=O)[C@@H]3NCCC[C@@H]3C(=O)N3CCCC3)C2)cc1 (single isomer, unassigned) [Example M05844] ; Ki observed: 800 to 5000 nM

Lab note: Cc1ccc(C[C@@H]2C[C@@H](C(=O)NCC3Cc4ccncc4C3)N(C(=O)[C@@H]3NCCC[C@@H]3C(=O)N3CCCC3)C2)cc1 (some centres unmarked) [Example M05764] gave Ki of < 200 nM

So for Cc1ccc(C[C@@H]2C[C@@H](C(=O)NCc3ccc4c(cnn4C)c3)N(C(=O)[C@@H]3NCCC[C@@H]3C(=O)N3CCCC34CC4)C2)cc1 [Example M05773] , the logged Ki turned out to be 200 to 800 nM

----------
The following compounds are shown together with reported Ki values.
Target: FXIIa (Homo sapiens, UniProt P00748)
Sequence (P00748 373-615 limits assumed): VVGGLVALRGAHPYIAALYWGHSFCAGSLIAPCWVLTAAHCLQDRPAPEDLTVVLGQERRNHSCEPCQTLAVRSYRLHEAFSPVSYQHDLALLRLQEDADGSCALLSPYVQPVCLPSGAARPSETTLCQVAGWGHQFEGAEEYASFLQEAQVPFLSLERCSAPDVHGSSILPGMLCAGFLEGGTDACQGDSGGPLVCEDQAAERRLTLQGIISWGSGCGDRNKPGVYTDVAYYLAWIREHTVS
Sequence (P00748 20-372 partner limits assumed): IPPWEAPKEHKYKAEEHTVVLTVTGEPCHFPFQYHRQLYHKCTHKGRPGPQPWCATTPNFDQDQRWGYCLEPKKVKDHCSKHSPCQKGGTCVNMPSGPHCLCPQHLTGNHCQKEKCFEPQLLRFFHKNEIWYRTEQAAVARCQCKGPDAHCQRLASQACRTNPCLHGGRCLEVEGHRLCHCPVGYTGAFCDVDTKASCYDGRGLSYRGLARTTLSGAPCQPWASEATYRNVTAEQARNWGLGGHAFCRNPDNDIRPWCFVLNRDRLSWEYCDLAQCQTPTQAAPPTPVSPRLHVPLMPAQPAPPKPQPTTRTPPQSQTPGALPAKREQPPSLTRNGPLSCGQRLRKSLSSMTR

Value of Ki reported for the compound Cc1ccc(C[C@@H]2C[C@@H](C(=O)NCc3ccc4c(cnn4C)c3)N(C(=O)[C@@H]3NCCC[C@@H]3C(=O)N3CCOCC3)C2)cc1 [Example M05753] is 200 to 800 nM

Measured Ki of Cn1nnc2cc(CNC(=O)[C@@H]3C/C(=C/C4=CCC5(CC4)CC5)CN3C(=O)[C@@H]3NCCC[C@@H]3C(=O)N3CCCC3)ccc21 [Example M05992] : 200 to 800 nM
